- experiment summary: Cytotoxicity assay on L6-cells (Alamar Blue)
- experimental setup: rat, Cytotox L6, Cytotoxicity against rat myoblast cells (L6)
Non-standard residues stand in square brackets, D forms with d. Residues, ends and D or L forms follow the SMILES beside them. *: point of attachment. Benzenesulfonyl(4-F) = O=S(=O)(c1ccc(F)cc1)*; NH((S)CH(Me)CH2NMe2) = C[C@@H](CN(C)C)N*; NH(1-CH2NMe2-cBu) = CN(C)CC1(N*)CCC1; dGly(nOct) = CCCCCCCC[C@@H](N)C(=O)O; Gly(octyl) = CCCCCCCC[C@H](N)C(=O)O; Benzoyl(4-F) = O=C(c1ccc(F)cc1)*; hCha = N[C@@H](CCC1CCCCC1)C(=O)O; X5 = CN(C)[C@H]1CCCC[C@@H]1N*; Lauroyl = CCCCCCCCCCCC(=O)*; Hexanoyl = CCCCCC(=O)*; Aib = CC(C)(N)C(=O)O; X9 = c1ccn(CCN*)c1; βAla = NCCC(=O)O
quantity name: IC50 at 70 h (nM)
Respond numerically; units are nM and should not be typed.

I am curious: what IC50 at 70 h value has been reported for CCCCCCCC[C@@H](NC(=O)[C@H]1CCCN1C(=O)CCCCC)C(=O)N[C@H](CC(C)C)C(=O)NC(C)(C)C(=O)N[C@H](CC(C)C)C(=O)N[C@H](CC(C)C)C(=O)NC(C)(C)C(=O)NC(C)(C)C(=O)NCCC(=O)N[C@@H](C)CN(C)C [Compound 5849] (Hexanoyl-[dP][dGly(nOct)][dL][Aib][dL][dL][Aib][Aib][βAla]-{NH((S)CH(Me)CH2NMe2)}) ? 1070

I am curious: what IC50 at 70 h value has been reported for CCCCCCCCCCCC(=O)N1CCC[C@H]1C(=O)N[C@@H](CCCCCCCC)C(=O)N[C@@H](CC(C)C)C(=O)NC(C)(C)C(=O)N[C@@H](CC(C)C)C(=O)N[C@@H](CC(C)C)C(=O)NC(C)(C)C(=O)NC(C)(C)C(=O)NCCC(=O)N[C@@H](C)CN(C)C [Compound 5651] (Lauroyl-P[Gly(octyl)]L[Aib]LL[Aib][Aib][βAla]-{NH((S)CH(Me)CH2NMe2)}) ? 498

I am curious: what IC50 at 70 h value has been reported for CCCCCCCC[C@H](NC(=O)[C@@H]1CCCN1S(=O)(=O)c1ccc(F)cc1)C(=O)N[C@@H](CC(C)C)C(=O)NC(C)(C)C(=O)N[C@@H](CC(C)C)C(=O)N[C@@H](CC(C)C)C(=O)NC(C)(C)C(=O)NC(C)(C)C(=O)NCCC(=O)N[C@@H](C)CN(C)C [Compound 5935] ({Benzenesulfonyl(4-F)}-P[Gly(octyl)]L[Aib]LL[Aib][Aib][βAla]-{NH((S)CH(Me)CH2NMe2)}) ? 384

I am curious: what IC50 at 70 h value has been reported for CCCCCCCC[C@H](NC(=O)[C@@H]1CCCN1C(=O)CCCCC)C(=O)N[C@@H](CC(C)C)C(=O)NC(C)(C)C(=O)N[C@@H](CC(C)C)C(=O)N[C@@H](CC(C)C)C(=O)NC(C)(C)C(=O)NC(C)(C)C(=O)NCCC(=O)N[C@H]1CCCC[C@@H]1N(C)C [Compound 5883] (Hexanoyl-P[Gly(octyl)]L[Aib]LL[Aib][Aib][βAla]-X5) ? 1480

I am curious: what IC50 at 70 h value has been reported for CCCCCCCC[C@@H](NC(=O)[C@H]1CCCN1C(=O)CCCCC)C(=O)N[C@H](CC(C)C)C(=O)NC(C)(C)C(=O)N[C@@H](CC(C)C)C(=O)N[C@@H](CC(C)C)C(=O)NC(C)(C)C(=O)NC(C)(C)C(=O)NCCC(=O)N[C@@H](C)CN(C)C [Compound 5851] (Hexanoyl-[dP][dGly(nOct)][dL][Aib]LL[Aib][Aib][βAla]-{NH((S)CH(Me)CH2NMe2)}) ? 1210

I am curious: what IC50 at 70 h value has been reported for CC(C)C[C@H](NC(=O)[C@H](CCC1CCCCC1)NC(=O)[C@@H]1CCCN1C(=O)c1ccc(F)cc1)C(=O)NC(C)(C)C(=O)N[C@@H](CC(C)C)C(=O)N[C@@H](CC(C)C)C(=O)NC(C)(C)C(=O)NC(C)(C)C(=O)NCCC(=O)NC1(CN(C)C)CCC1 [Compound 6027] ({Benzoyl(4-F)}-P[hCha]L[Aib]LL[Aib][Aib][βAla]-{NH(1-CH2NMe2-cBu)}) ? 1390

I am curious: what IC50 at 70 h value has been reported for CCCCCCCC[C@H](NC(=O)[C@@H]1CCCN1C(=O)CCCCC)C(=O)N[C@@H](CC(C)C)C(=O)NC(C)(C)C(=O)N[C@@H](CC(C)C)C(=O)N[C@@H](CC(C)C)C(=O)NC(C)(C)C(=O)NC(C)(C)C(=O)NCCC(=O)NCCn1cccc1 [Compound 5887] (Hexanoyl-P[Gly(octyl)]L[Aib]LL[Aib][Aib][βAla]-X9) ? 479

====

Exercise: state measured IC50 at 70 h for each of the compounds provided.
- experiment summary: Cytotoxicity assay on L6-cells (Alamar Blue)
- experimental setup: rat, Cytotox L6, Cytotoxicity against rat myoblast cells (L6)
Non-standard residues stand in square brackets, D forms with d. Residues, ends and D or L forms follow the SMILES beside them. *: point of attachment. Hexenoyl(2E,4S-Me) = CC[C@H](C)/C=C/C(=O)*; Leu(3R-OH) = CC(C)[C@@H](O)[C@H](N)C(=O)O; NH((S)CH(Me)CH2NMe2) = C[C@@H](CN(C)C)N*; Gly(octyl) = CCCCCCCC[C@H](N)C(=O)O; Oxazole4CO(2-Me) = Cc1nc(C(=O)*)co1; Nle = CCCC[C@H](N)C(=O)O; Aib = CC(C)(N)C(=O)O; βAla = NCCC(=O)O
Respond numerically; units are µM and should not be typed.

I am curious: what IC50 at 70 h value has been reported for CCCCCCCC[C@H](NC(=O)[C@@H]1CCCN1C(C)=O)C(=O)N[C@H](C(=O)NC(C)(C)C(=O)N[C@@H](CC(C)C)C(=O)N[C@@H](CC(C)C)C(=O)NC(C)(C)C(=O)NC(C)(C)C(=O)NCCC(=O)N[C@@H](C)CN(C)C)[C@H](O)C(C)C [Compound 5588] (Ac-P[Gly(octyl)][Leu(3R-OH)][Aib]LL[Aib][Aib][βAla]-{NH((S)CH(Me)CH2NMe2)}) ? 3.54

I am curious: what IC50 at 70 h value has been reported for CCCC[C@H](NC(=O)[C@@H]1CCCN1C(=O)/C=C/[C@@H](C)CC)C(=O)N[C@H](C(=O)NC(C)(C)C(=O)N[C@@H](CC(C)C)C(=O)N[C@@H](CC(C)C)C(=O)NC(C)(C)C(=O)NC(C)(C)C(=O)NCCC(=O)N[C@@H](C)CN(C)C)[C@H](O)C(C)C [Compound 5561] ({Hexenoyl(2E,4S-Me)}-P[Nle][Leu(3R-OH)][Aib]LL[Aib][Aib][βAla]-{NH((S)CH(Me)CH2NMe2)}) ? 0.356

I am curious: what IC50 at 70 h value has been reported for CCCCCCCC[C@H](NC(=O)c1coc(C)n1)C(=O)N[C@H](C(=O)NC(C)(C)C(=O)N[C@@H](CC(C)C)C(=O)N[C@@H](CC(C)C)C(=O)NC(C)(C)C(=O)NC(C)(C)C(=O)NCCC(=O)N[C@@H](C)CN(C)C)[C@@H](C)O [Compound 5640] ({Oxazole4CO(2-Me)}-[Gly(octyl)]T[Aib]LL[Aib][Aib][βAla]-{NH((S)CH(Me)CH2NMe2)}) ? 4.44

====

- experiment summary: Cytotoxicity assay on L6-cells (Alamar Blue)
- experimental setup: rat, Cytotox L6, Cytotoxicity against rat myoblast cells (L6)
Non-standard residues stand in square brackets, D forms with d. Residues, ends and D or L forms follow the SMILES beside them. *: point of attachment. Acetyl(1-adamantyl) = O=C(CC12CC3CC(CC(C3)C1)C2)*; NH((S)CH(Me)CH2NMe2) = C[C@@H](CN(C)C)N*; NH(1-CH2NMe2-cBu) = CN(C)CC1(N*)CCC1; Gly(octyl) = CCCCCCCC[C@H](N)C(=O)O; Oxazole4CO(2-Me) = Cc1nc(C(=O)*)co1; hCha = N[C@@H](CCC1CCCCC1)C(=O)O; Aib = CC(C)(N)C(=O)O; X14 = O=C(c1cocn1)*; βAla = NCCC(=O)O
quantity name: IC50 at 70 h (nM)
Respond numerically; units are nM and should not be typed.

I am curious: what IC50 at 70 h value has been reported for CCCCCCCC[C@H](NC(=O)[C@@H]1CCCN1C(=O)CC12CC3CC(CC(C3)C1)C2)C(=O)N[C@@H](CC(C)C)C(=O)NC(C)(C)C(=O)N[C@@H](CC(C)C)C(=O)N[C@@H](CC(C)C)C(=O)NC(C)(C)C(=O)NC(C)(C)C(=O)NCCC(=O)N[C@@H](C)CN(C)C [Compound 5771] ({Acetyl(1-adamantyl)}-P[Gly(octyl)]L[Aib]LL[Aib][Aib][βAla]-{NH((S)CH(Me)CH2NMe2)}) ? 113

I am curious: what IC50 at 70 h value has been reported for Cc1nc(C(=O)N2CCC[C@H]2C(=O)N[C@@H](CCC2CCCCC2)C(=O)N[C@@H](CC(C)C)C(=O)NC(C)(C)C(=O)N[C@@H](CC(C)C)C(=O)N[C@@H](CC(C)C)C(=O)NC(C)(C)C(=O)NC(C)(C)C(=O)NCCC(=O)NC2(CN(C)C)CCC2)co1 [Compound 6025] ({Oxazole4CO(2-Me)}-P[hCha]L[Aib]LL[Aib][Aib][βAla]-{NH(1-CH2NMe2-cBu)}) ? 1910

I am curious: what IC50 at 70 h value has been reported for CCCCCCCC[C@H](NC(=O)c1cocn1)C(=O)N[C@H](C(=O)NC(C)(C)C(=O)N[C@@H](CC(C)C)C(=O)N[C@@H](CC(C)C)C(=O)NC(C)(C)C(=O)NC(C)(C)C(=O)NCCC(=O)N[C@@H](C)CN(C)C)[C@@H](C)O [Compound 5639] (X14-[Gly(octyl)]T[Aib]LL[Aib][Aib][βAla]-{NH((S)CH(Me)CH2NMe2)}) ? 1640
